experimental-system: T1, human Gelatinase-A (human, UniProt P08253 110-660, limits assumed)
T1 sequence (looked up): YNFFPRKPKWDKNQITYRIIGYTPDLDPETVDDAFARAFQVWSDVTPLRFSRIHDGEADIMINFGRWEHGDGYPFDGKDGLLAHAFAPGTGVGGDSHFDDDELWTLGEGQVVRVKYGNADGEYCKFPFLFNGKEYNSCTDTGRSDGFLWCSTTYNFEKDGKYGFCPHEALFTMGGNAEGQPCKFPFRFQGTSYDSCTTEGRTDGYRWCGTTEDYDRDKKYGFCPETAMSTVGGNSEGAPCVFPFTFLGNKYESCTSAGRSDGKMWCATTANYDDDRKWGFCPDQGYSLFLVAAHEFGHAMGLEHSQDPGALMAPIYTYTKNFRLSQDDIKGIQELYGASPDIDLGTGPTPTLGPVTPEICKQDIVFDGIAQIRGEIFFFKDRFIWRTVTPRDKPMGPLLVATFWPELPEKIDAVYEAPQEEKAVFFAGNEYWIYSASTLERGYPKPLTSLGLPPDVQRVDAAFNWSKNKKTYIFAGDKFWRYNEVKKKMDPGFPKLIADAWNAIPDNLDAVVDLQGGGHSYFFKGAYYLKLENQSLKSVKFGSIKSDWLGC
assay-info: cell-based or functional assay
*1 amine or outer side, *2 acyl side, *3 side chain or, on linkers, in order; H or OH if unused. [ ]: non-standard residue; d: D form. The star is where a group is joined. Dnp = O=[N+]([O-])c1ccc(*)c([N+](=O)[O-])c1; C(Me) = CSC[C@H](N[*:1])C(=O)[*:2]
Below, each entry is listed with its recorded Selectivity v. Coll-3.

Dnp-DEGPMGLK[C(Me)]YLG-NH2 (SMILES CSCC[C@H](NC(=O)[C@@H]1CCCN1C(=O)CNC(=O)[C@H](CCC(=O)O)NC(=O)[C@H](CC(=O)O)Nc1ccc([N+](=O)[O-])cc1[N+](=O)[O-])C(=O)NCC(=O)N[C@@H](CC(C)C)C(=O)N[C@@H](CCCCN)C(=O)N[C@@H](CSC)C(=O)N[C@@H](Cc1ccc(O)cc1)C(=O)N[C@@H](CC(C)C)C(=O)NCC(N)=O) [Dnp-…(Me)YLG-NH2]
9 unitless
Dnp-GPVNLHG-NH2 (SMILES CC(C)C[C@H](NC(=O)[C@H](CC(N)=O)NC(=O)[C@@H](NC(=O)[C@@H]1CCCN1C(=O)CNc1ccc([N+](=O)[O-])cc1[N+](=O)[O-])C(C)C)C(=O)N[C@@H](Cc1c[nH]cn1)C(=O)NCC(N)=O) [Dnp-GPVNLHG-NH2]
25 unitless

Moving on to another binder below.
In: Item under review: Dnp-GPYGMRA-NH2 (SMILES CSCC[C@H](NC(=O)CNC(=O)[C@H](Cc1ccc(O)cc1)NC(=O)[C@@H]1CCCN1C(=O)CNc1ccc([N+](=O)[O-])cc1[N+](=O)[O-])C(=O)N[C@@H](CCCNC(=N)N)C(=O)N[C@@H](C)C(N)=O) [Dnp-GPYGMRA-NH2] . Reported Selectivity v. Coll-3?
Out: 16 unitless
